# Target entity: acid ceramidase (Homo sapiens, UniProt Q13510)
# Construct: if using cell lysate, each well contained 7.45 µL assay buffer; endogenous in cells; host or cells: HEK293 cell lysate (supernatant after freeze-thaw and homogenisation)
# Sequence (Q13510 22-395, species assumed): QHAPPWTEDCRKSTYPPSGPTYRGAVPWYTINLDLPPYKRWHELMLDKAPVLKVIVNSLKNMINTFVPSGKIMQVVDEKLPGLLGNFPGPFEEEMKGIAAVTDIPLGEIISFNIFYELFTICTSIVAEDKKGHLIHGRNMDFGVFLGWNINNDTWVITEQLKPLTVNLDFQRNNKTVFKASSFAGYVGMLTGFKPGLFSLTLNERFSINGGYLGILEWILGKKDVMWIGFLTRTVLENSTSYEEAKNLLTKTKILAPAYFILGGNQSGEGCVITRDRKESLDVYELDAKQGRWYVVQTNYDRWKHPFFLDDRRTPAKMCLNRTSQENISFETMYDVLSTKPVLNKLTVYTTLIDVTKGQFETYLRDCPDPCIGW
# Test name: in-house cell lysate acid ceramidase inhibition assay (HEK293 cell lysate, RBM14-C12 substrate)
# Type: biochemical
# Experimental conditions: cell lysate assay with addition of N,N,N′,N′-tetrakis(2-pyridinylmethyl)-1,2-ethanediamine (Zn2+ chelator); read-out: IC50
Measured parameter: IC50 (nM)
Response body: numeric value in nM, unit text excluded.

What value of IC50 has been recorded for this entry: O=C(NOC(=O)c1ccc(N2CCCCCC2)c([N+](=O)[O-])c1)c1ccc(OC(F)F)cc1 8

====

# Target entity: acid ceramidase (Homo sapiens)
# Construct: if using cell lysate, each well contained 7.45 µL assay buffer; endogenous in cells; host or cells: HEK293 cell lysate (supernatant after freeze-thaw and homogenisation)
# Test name: HTS acid ceramidase assay (modified reported assay, without Saposin D)
# Assay type: biochemical
# Experimental conditions: library sample
Measured parameter: pIC50
Hey, just a heads up that pIC50 is the negative log base 10 of the concentration in molar.

What value of pIC50 has been recorded for this entry: O=C(NOC(=O)c1ccc(N2CCCCCC2)c([N+](=O)[O-])c1)c1ccc(OC(F)F)cc1 6.47

====

# Target entity: acid ceramidase (Homo sapiens)
# Construct: if using cell lysate, each well contained 7.45 µL assay buffer; endogenous in cells; host or cells: HEK293 cell lysate (supernatant after freeze-thaw and homogenisation)
# Test name: in-house cell lysate acid ceramidase inhibition assay (HEK293 cell lysate, RBM14-C12 substrate)
# Assay type: biochemical
Measured parameter: IC50

What value of IC50 has been recorded for this entry: O=C=Nc1ccc(OC(F)F)cc1 ~100 µM

====

# Target entity: acid ceramidase (Homo sapiens, UniProt Q13510)
# Construct: if using cell lysate, each well contained 7.45 µL assay buffer; endogenous in cells; host or cells: HEK293 cell lysate (supernatant after freeze-thaw and homogenisation)
# Test name: in-house cell lysate acid ceramidase inhibition assay (HEK293 cell lysate, RBM14-C12 substrate)
# Format: biochemical
# Experimental conditions: cell lysate assay with addition of EDTA; read-out: IC50
Measured parameter: IC50 (nM)
Response body: numeric value in nM, unit text excluded.

# query: IC50 | item O=C(NOC(=O)c1ccc(N2CCCCCC2)c([N+](=O)[O-])c1)c1ccc(OC(F)F)cc1 [compound 1] | system: acid ceramidase (Homo sapiens, UniProt Q13510) 7

====

# Target entity: acid ceramidase (Homo sapiens, UniProt Q13510)
# Construct: if using cell lysate, each well contained 7.45 µL assay buffer; endogenous in cells; host or cells: HEK293 cell lysate (supernatant after freeze-thaw and homogenisation)
# Test name: in-house cell lysate acid ceramidase inhibition assay (HEK293 cell lysate, RBM14-C12 substrate)
# Assay type: biochemical
# Experimental conditions: cell lysate assay, freshly synthesised sample; read-out: IC50
Measured parameter: IC50 (nM)
Response body: numeric value in nM, unit text excluded.

What value of IC50 has been recorded for this entry: O=C(NOC(=O)c1ccc(N2CCCCCC2)c([N+](=O)[O-])c1)c1ccc(OC(F)F)cc1 3.2

====

# Target entity: acid ceramidase (Homo sapiens, UniProt Q13510)
# Construct: if using cell lysate, each well contained 7.45 µL assay buffer; endogenous in cells; host or cells: HEK293 cell lysate (supernatant after freeze-thaw and homogenisation)
# Test name: purified protein acid ceramidase inhibition assay
# Assay type: biochemical
# Experimental conditions: freshly synthesised sample
Measured parameter: IC50

What value of IC50 has been recorded for this entry: O=C(NOC(=O)c1ccc(N2CCCCCC2)c([N+](=O)[O-])c1)c1ccc(OC(F)F)cc1 [compound 1] 163 nM
